dTm by entry:
- ASSAYED TARGET: ~100 representative kinases (Homo sapiens, UniProt Q9Y2H1)
- Construct: Recombinant protein kinase domains with a concentration of 2 μM
- Sequence (Q9Y2H1 whole entry, the tested form may be a part): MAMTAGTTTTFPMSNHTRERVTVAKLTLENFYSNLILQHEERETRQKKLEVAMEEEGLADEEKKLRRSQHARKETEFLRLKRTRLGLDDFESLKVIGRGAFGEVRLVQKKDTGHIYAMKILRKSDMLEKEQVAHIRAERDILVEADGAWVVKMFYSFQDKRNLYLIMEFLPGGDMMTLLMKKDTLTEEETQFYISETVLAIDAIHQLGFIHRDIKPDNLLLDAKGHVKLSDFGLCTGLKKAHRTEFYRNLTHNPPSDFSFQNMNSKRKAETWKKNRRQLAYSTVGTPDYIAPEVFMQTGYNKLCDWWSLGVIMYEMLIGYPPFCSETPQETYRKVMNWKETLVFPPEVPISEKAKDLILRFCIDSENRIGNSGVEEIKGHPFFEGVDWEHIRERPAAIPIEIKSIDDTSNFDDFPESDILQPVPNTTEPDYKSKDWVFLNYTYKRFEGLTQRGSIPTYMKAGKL
- ASSAY METHOD TEXT: DSF 100 kinase selectivity screen;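 also: compound tested at 20 µM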
- Type: binding
- CONDITIONS USED: Protein STK38L; DSF; average of three replicates

{"columns": ["COMPOUND", "UNIT STRING", "dTm"],
 "data": [
  ["O=C(Nc1cccc(-c2c[nH]c3ncnc(N4CCOCC4)c23)c1)C1(C(=O)Nc2ccc(F)c(Cl)c2)CC1", "K", 0.59],
  ["Cc1ccc(C(=O)Nc2ccc(CN3CCN(C)CC3)c(C(F)(F)F)c2)cc1C#Cc1c[nH]c2ncnc(N3CCOCC3)c12", "K", 2.95],
  ["O=C(Nc1cccc(-c2c[nH]c3ncnc(N4CCOCC4)c23)c1)C1(C(=O)Nc2ccc(F)c(Br)c2)CC1", "K", 0.00],
  ["CCc1ccc(NC(=O)C2(C(=O)Nc3cccc(-c4c[nH]c5ncnc(N6CCOCC6)c45)c3)CC2)cc1", "K", 0.73],
  ["Cc1ccc(C(=O)Nc2ccc(CN3CCN(C)CC3)c(C(F)(F)F)c2)cc1C#Cc1cnc2[nH]ncc2c1 [GZD-824, reference compound]", "K", 2.07],
  ["Cc1ccc(-n2nc(C(C)(C)C)cc2NC(=O)Nc2cccc(-c3c[nH]c4ncnc(N5CCOCC5)c34)c2)cc1", "K", -0.41],
  ["O=C(Nc1cccc(-c2c[nH]c3ncnc(N4CCOCC4)c23)c1)C1(C(=O)Nc2ccc(F)cc2F)CC1", "K", 0.0847],
  ["Cc1cc(NC(=O)C2(C(=O)Nc3ccc(F)cc3)CC2)cc(-c2c[nH]c3ncnc(N4CCOCC4)c23)c1", "K", 0.00],
  ["CC(C)(C)c1cc(NC(=O)Nc2cccc(-c3c[nH]c4ncnc(N5CCOCC5)c34)c2)n(-c2ccc3ncccc3c2)n1", "K", 0.64],
  ["COc1cc2c(Oc3ccc(NC(=O)C4(C(=O)Nc5ccc(F)cc5)CC4)cc3F)ccnc2cc1OCCCN1CCOCC1 [Foretinib, reference compound]", "K", 0.47],
  ["O=C(Nc1cccc(-c2c[nH]c3ncnc(N4CCOCC4)c23)c1)C1(C(=O)Nc2ccc(F)c(Br)c2F)CC1", "K", -2.16],
  ["O=C(Nc1cccc(-c2c[nH]c3ncnc(N4CCOCC4)c23)c1)C1(C(=O)Nc2ccc(F)c(F)c2)CC1", "K", 0.13],
  ["O=C(Nc1ccc(F)cc1)C1(C(=O)Nc2cccc(-c3c[nH]c4ncnc(N5CCOCC5)c34)c2)CC1", "K", -0.20],
  ["CC(C)(C)c1cccc(NC(=O)C2(C(=O)Nc3cccc(-c4c[nH]c5ncnc(N6CCOCC6)c45)c3)CC2)c1", "K", -2.35],
  ["Cc1cc(F)ccc1NC(=O)C1(C(=O)Nc2cccc(-c3c[nH]c4ncnc(N5CCOCC5)c34)c2)CC1", "K", -0.0467]
]}
